biological target: T1, MLL4_(ePHD6)_(1475–1564) (human, UniProt O14686 1475-1564); assay: ITC; peptide (1–2 mM) in the syringe injected into protein (50–100 μM) in the cell; 25 °C; 20 mM Tris pH 7.5, 150 mM NaCl; single-site binding model; conditions: both partners purified
T1 construct: MLL4 (KMT2D, ALR), human, residues 1475–1564: the zinc finger before PHD6 and the sixth PHD domain; also called extended PHD6 domain of MLL4; source: E. coli BL21 (DE3) Codon plus RIL, purified (Ni-NTA, thrombin, HiTrap Q, Superdex75); not shown: GST, N-terminal, cleaved; His tag, N-terminal, cleaved
T1 sequence (O14686 1475-1564): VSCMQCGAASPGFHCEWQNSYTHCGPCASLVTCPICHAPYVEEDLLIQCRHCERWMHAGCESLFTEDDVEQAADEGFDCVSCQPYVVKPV
property-measured: Kd (µM)
A number alone suffices; assume µM.

## Task For the binder shown here, GKGGAKRHRKV (peptide, UniProt P62805 12-22, looked up, histone H4, residues 11–21; also called H4H18 peptide; source: synthetic peptide (Peptide 2.0 Inc.)) [histone H4 peptide H4_(11–21)] , give the reported Kd.
## Result 52

Source of measurements: paper PMC6318328
